Cited source: ChEMBL document CHEMBL4476867

Molecular target: Tolloid-like protein 2 (Homo sapiens, UniProt Q9Y6L7)
Sequence (Q9Y6L7 whole entry, the tested form may be a part): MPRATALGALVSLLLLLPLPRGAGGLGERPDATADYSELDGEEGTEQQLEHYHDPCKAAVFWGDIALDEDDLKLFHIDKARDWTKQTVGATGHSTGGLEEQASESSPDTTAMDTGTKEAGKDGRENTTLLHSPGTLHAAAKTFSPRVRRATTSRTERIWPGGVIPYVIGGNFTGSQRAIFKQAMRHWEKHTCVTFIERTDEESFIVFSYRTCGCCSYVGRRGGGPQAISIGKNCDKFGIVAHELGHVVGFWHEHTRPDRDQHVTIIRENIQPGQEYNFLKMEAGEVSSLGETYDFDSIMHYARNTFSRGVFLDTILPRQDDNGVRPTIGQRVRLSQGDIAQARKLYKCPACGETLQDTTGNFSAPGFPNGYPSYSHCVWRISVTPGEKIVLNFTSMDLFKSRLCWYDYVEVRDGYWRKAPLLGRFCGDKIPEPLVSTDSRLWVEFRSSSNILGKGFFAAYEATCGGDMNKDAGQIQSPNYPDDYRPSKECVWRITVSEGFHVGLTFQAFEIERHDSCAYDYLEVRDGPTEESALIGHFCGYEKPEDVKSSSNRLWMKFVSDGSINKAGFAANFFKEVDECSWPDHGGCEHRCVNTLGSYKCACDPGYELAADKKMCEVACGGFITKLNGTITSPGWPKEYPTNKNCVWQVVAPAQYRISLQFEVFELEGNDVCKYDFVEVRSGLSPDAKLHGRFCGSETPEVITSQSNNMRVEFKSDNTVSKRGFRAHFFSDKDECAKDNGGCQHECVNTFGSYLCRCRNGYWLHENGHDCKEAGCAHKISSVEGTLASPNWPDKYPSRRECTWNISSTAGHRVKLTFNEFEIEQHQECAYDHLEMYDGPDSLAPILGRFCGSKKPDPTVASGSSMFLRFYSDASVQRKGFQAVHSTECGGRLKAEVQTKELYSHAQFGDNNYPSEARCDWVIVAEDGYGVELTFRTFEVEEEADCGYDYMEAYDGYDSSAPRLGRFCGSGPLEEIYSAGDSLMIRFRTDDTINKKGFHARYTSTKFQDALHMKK
Assay: Inhibition of C-terminal Avi-6x-His epitope tagged and N-terminal human RAGE signal sequence tagged recombinant human TLL2 (26 to 1015 amino acids) expressed in CHOE1A cells incubated for 60 mins with promyostatin peptide substrate by FRET based assay
Type: cell-based
reported.property: IC50

Task: For CCCCC[C@@H](C(=O)NCNC(=O)c1ccc(-c2cc(OCC)cc(C(=O)N[C@@H](CCC(=O)O)C(=O)OC(C)(C)C)c2)o1)[C@@H](CC)N(O)C=O , what is its reported IC50?
Result: < 794 nM

Task: Reported IC50 for CCCCC[C@H](CN(O)C=O)C(=O)NCNC(=O)c1ccc(-c2cccc(SCC)c2)o1 : what is it?
Result: < 794 nM

Task: Returns the measured IC50 for the input molecule. Input: CCCCC[C@H](CN(O)C=O)C(=O)NCNC(=O)c1ccc(-c2ccc3c(c2)S(=O)(=O)NC3)o1
Result: < 794 nM

Task: Give the measured IC50 of CCCCC[C@H](CN(O)C=O)C(=O)NCNC(=O)c1ccc(-c2cccc(P(=O)(OC)OC)c2)o1 .
Result: < 794 nM

Task: If you can, please state the reported IC50 value of CCCCC[C@@H](C(=O)NCNC(=O)c1ccc(-c2ccc(CC(=O)O)cc2)o1)[C@@H](CC)N(O)C=O .
Result: < 794 nM

Task: Could you share which IC50 value was measured for CCCCC[C@@H](C(=O)NCNC(=O)c1ccc(-c2cc(CP(=O)(O)O)cc(OCC)c2)o1)[C@@H](CC)N(O)C=O ?
Result: < 794 nM

Task: Name the reported IC50 value associated with the molecule CCCCC[C@@H](C(=O)NCNC(=O)c1ccc(-c2cc(OCC(=O)O)cc(P(=O)(O)O)c2)o1)[C@@H](CC)N(O)C=O
Result: < 794 nM

Task: Recorded IC50 for CCCCC[C@H](CN(O)C=O)C(=O)NCNC(=O)c1ccc(-c2ccc(C(=O)O)cc2)o1 , please?
Result: < 794 nM
